TESTED_SYSTEM: Prostaglandin G/H synthase 1 (Homo sapiens)
Sequence (P23219 whole entry): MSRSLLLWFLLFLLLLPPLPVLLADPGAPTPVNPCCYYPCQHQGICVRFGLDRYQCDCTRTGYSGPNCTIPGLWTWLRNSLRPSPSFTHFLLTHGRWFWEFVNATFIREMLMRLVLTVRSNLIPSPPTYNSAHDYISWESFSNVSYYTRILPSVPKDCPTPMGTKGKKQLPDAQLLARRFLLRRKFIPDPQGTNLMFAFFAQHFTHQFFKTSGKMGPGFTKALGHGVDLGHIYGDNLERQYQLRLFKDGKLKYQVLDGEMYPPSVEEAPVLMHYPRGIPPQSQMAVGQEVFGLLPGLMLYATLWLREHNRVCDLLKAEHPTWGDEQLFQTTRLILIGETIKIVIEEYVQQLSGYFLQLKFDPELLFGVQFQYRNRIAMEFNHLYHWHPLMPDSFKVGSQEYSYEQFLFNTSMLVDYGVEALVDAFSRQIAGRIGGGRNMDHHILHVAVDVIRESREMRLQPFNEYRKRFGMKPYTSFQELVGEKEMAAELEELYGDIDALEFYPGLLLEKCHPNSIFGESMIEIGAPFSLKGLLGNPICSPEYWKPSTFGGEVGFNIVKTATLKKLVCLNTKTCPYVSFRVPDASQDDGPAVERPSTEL
ASSAY_INFO: Inhibition of human recombinant COX1 by ELISA
Can you tell me IC50 for the items I'm about to list?
Numbers only, in µM.

As a guide, the following entries are already answered.
[[record]]
molecule = "NS(=O)(=O)c1ccc(N2N=C3c4ccccc4CCC3C2c2cccc(Br)c2)cc1 (stereo not given)"
tested_system = "Prostaglandin G/H synthase 1 (Homo sapiens)"
experimental_readout = "IC50"
recorded_value = 100

[[record]]
molecule = "NS(=O)(=O)c1ccc(N2N=C3c4ccccc4OCC3C2c2ccccc2Br)cc1 (stereo not given)"
tested_system = "Prostaglandin G/H synthase 1 (Homo sapiens)"
experimental_readout = "IC50"
recorded_value = 90.2

[[record]]
molecule = "COc1ccc(C2C3COc4ccccc4C3=NN2c2ccc(S(N)(=O)=O)cc2)cc1 (stereo not given)"
tested_system = "Prostaglandin G/H synthase 1 (Homo sapiens)"
experimental_readout = "IC50"
recorded_value = 78.1

[[record]]
molecule = "NS(=O)(=O)c1ccc(N2N=C3c4ccccc4CCC3C2c2cccc(O)c2)cc1 (stereo not given)"
tested_system = "Prostaglandin G/H synthase 1 (Homo sapiens)"
experimental_readout = "IC50"
recorded_value = 86.2

[[record]]
molecule = "COc1cccc(C2C3CCc4ccccc4C3=NN2c2ccc(S(N)(=O)=O)cc2)c1 (stereo not given)"
tested_system = "Prostaglandin G/H synthase 1 (Homo sapiens)"
experimental_readout = "IC50"
recorded_value = 85.5

[[record]]
molecule = "Cc1cccc(C2C3CCc4ccccc4C3=NN2c2ccc(S(N)(=O)=O)cc2)c1 (stereo not given)"
tested_system = "Prostaglandin G/H synthase 1 (Homo sapiens)"
experimental_readout = "IC50"
recorded_value = 91.5


Okay, here is my list. What is IC50 for each of these?
1. COc1ccccc1C1C2COc3ccccc3C2=NN1c1ccc(S(N)(=O)=O)cc1 (stereo not given)
2. Cc1ccccc1C1C2CCc3ccccc3C2=NN1c1ccc(S(N)(=O)=O)cc1 (stereo not given)
3. COc1ccccc1C1C2CCc3ccccc3C2=NN1c1ccc(S(N)(=O)=O)cc1 (stereo not given)

output:
[68.5, 99.9, 96.2]

Please report IC50 for every entry that follows.
1. NS(=O)(=O)c1ccc(N2N=C3c4ccccc4CCC3C2c2c(F)cccc2Cl)cc1 (stereo not given)
2. Cc1ccccc1C1C2COc3ccccc3C2=NN1c1ccc(S(N)(=O)=O)cc1 (stereo not given)

output:
1: 99.8; 2: 59.4
